EXPERIMENTAL_TARGET: PIM-1 (Homo sapiens, UniProt P11309)
Sequence (P11309 whole entry, species assumed): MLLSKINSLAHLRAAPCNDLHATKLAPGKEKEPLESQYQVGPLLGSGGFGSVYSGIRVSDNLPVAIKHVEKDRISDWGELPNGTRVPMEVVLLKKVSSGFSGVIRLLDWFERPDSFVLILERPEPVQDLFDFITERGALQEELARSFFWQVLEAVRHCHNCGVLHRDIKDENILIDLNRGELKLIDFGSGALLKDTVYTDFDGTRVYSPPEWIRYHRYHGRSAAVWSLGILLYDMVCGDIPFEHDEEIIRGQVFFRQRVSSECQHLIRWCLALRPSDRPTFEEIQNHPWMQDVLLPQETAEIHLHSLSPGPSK
Structures can show the parent of a compound that is named as a salt.
Overview of recorded IC50 for various compounds
MEASURED_PROPERTY: IC50 (nM)

COMPOUND	MEASURED_PROPERTY	ASSAY_VALUE
COCCOc1ccc2ccc(-c3nnc4ccc([C@@H](N5CC[C@](C)(N)C5)C(F)(F)F)cn34)nc2c1 [Example 261, dihydrochloride]	IC50	0.6
CCOc1cc2nc(-c3nnc4ccc([C@H](N5CC[C@@H](N)C5)C(F)(F)F)cn34)ccc2cc1F [Example 292, hydrochloride]	IC50	0.65
CC(C)(CO)c1cc(F)cc2ccc(-c3nnc4ccc([C@@H](N5CC[C@H](N)C5)C(F)(F)F)cn34)nc12 [Example 121, dihydrochloride]	IC50	0.13
CC(C)NC(=O)c1ccc2ccc(-c3nnc4ccc([C@H](N5CC[C@H](N)C5)C(F)(F)F)cn34)nc2c1 [Example 48, dihydrochloride]	IC50	1.41
COc1cc(F)cc2ccc(-c3nnc4ccc([C@H](N5CC[C@](C)(N)C5)C(F)(F)F)cn34)nc12	IC50	0.26
CCC1(N)CCN([C@H](c2ccc3nnc(-c4ccc5cccc(OC)c5n4)n3c2)C(F)(F)F)C1 (single isomer, unassigned; diastereomer 2) [Example 252, dihydrochloride]	IC50	4.05

====

EXPERIMENTAL_TARGET: GST-tagged recombinant full-length human Pim-2 (Homo sapiens, UniProt Q9P1W9)
Construct: GST-tagged recombinant full-length human Pim-2; GST
Sequence (Q9P1W9 whole entry): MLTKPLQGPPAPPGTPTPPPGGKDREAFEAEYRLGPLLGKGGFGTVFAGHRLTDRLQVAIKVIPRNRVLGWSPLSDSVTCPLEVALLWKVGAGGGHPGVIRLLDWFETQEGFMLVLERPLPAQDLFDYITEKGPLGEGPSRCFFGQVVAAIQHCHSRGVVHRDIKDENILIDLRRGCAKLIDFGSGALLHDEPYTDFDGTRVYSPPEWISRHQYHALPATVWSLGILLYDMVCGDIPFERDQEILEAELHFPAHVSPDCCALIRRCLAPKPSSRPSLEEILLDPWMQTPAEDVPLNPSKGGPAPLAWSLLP
TEST_PROTOCOL: PIM-2 Assay (as Example A)
EXPERIMENTAL_CONDITIONS: averaged IC50; 4 μM ATP, 1.0 μM PIM2tide, 1.5 nM Pim-2
pIC50: −log10 of the molar value. Counter-ions that a name gives are not always drawn.
MEASURED_PROPERTY: pIC50

COMPOUND	MEASURED_PROPERTY	LIMIT_OPERATOR	ASSAY_VALUE
N[C@H]1CCN([C@H](c2ccc3nnc(-c4ccc5cc(F)c(C6(CO)CC6)cc5n4)n3c2)C(F)(F)F)C1 [Example 164, dihydrochloride]	pIC50	<	7.00
CCNC(=O)Cc1cccc2ccc(-c3nnc4ccc([C@@H](N5CC[C@H](N)C5)C(F)(F)F)cn34)nc12 [Example 235, dihydrochloride]	pIC50	<	6.00
C[C@]1(N)CCN([C@@H](c2ccc3nnc(-c4ccc5cccc(C6CC6)c5n4)n3c2)C(F)(F)F)C1 [Example 96, dihydrochloride]	pIC50	=	8.27
COCCc1ccc2ccc(-c3nnc4ccc([C@@H](N5CC[C@H](N)C5)C(F)(F)F)cn34)nc2c1F [Example 166, dihydrochloride]	pIC50	<	7.00
CCSc1ccc2ccc(-c3nnc4ccc([C@@H](N5CC[C@H](N)C5)C(F)(F)F)cn34)nc2c1 [Example 266, hydrochloride]	pIC50	=	6.16
COc1cc(F)cc2ccc(-c3nnc4ccc([C@@H](N5CC[C@H](N)C5)C(F)(F)F)cn34)nc12 [Example 115, hydrochloride]	pIC50	<	7.00
CC1(COc2ccc3ccc(-c4nnc5ccc([C@@H](N6CC[C@H](N)C6)C(F)(F)F)cn45)nc3c2)COC1 [Example 198, diformate]	pIC50	=	6.91
CC(C)Oc1cc(F)cc2ccc(-c3nnc4ccc([C@H](N5CCC(C)(O)C5)C(F)(F)F)cn34)nc12 (single isomer, unassigned; diastereomer 1) [Example 202, hydrochloride]	pIC50	<	6.00
COCCc1cc2nc(-c3nnc4ccc([C@H](N5CC[C@](C)(N)C5)C(F)(F)F)cn34)ccc2cc1F [Example 311]	pIC50	=	7.30
COCCOc1cc(F)cc2ccc(-c3nnc4ccc([C@@H](N5CC[C@H](N)C5)C(F)(F)F)cn34)nc12 [Example 98, hydrochloride]	pIC50	<	7.00
N[C@H]1CCN([C@H](c2ccc3nnc(-c4ccc5cccc(OCCO)c5n4)n3c2)C(F)(F)F)C1 [Example 219, dihydrochloride]	pIC50	=	6.60
CC(C)Oc1ccc2ccc(-c3nnc4ccc([C@@H](N5CC[C@H](N)C5)C(F)(F)F)cn34)nc2c1C1CC1 [Example 151, dihydrochloride]	pIC50	=	7.07

Data provenance is patent US8889704B2.
